- assay.system: Tubulin (Homo sapiens) (UniProt P68371+Q9H4B7+P0DPH7+P68366+Q13509+Q71U36+P04350+Q3ZCM7+P07437+P68363+Q9BQE3+Q6PEY2+Q13885+Q9BVA1+Q9BUF5)
- test.method.notes: Binding affinity to tubulin (unknown origin) by fluorescence polarization displacement assay
- Type: protein-complex assay
Threshold-based label: relative binding affinity (RBA) under 0.3 gives class 1, relative binding affinity (RBA) not under 0.3 gives class 0.

[
  {
    "mol": "CC[C@H](C)[C@H](NC(=O)[C@H]1CCCCN1C)C(=O)N(C)[C@H](C[C@@H](OC(=O)C(C)C)c1nc(C(=O)N[C@@H](Cc2ccccc2)C[C@H](C)C(=O)O)cs1)C(C)C",
    "discrete.label": "class 0"
  },
  {
    "mol": "CCO[C@H](C[C@H](C(C)C)N(C)C(=O)[C@@H](NC(=O)[C@H]1CCCCN1C)[C@H](C)CC)c1nc(C(=O)N[C@@H](Cc2ccccc2)C[C@H](C)C(=O)O)cs1",
    "discrete.label": "class 1"
  },
  {
    "mol": "C=CCO[C@H](C[C@H](C(C)C)N(C)C(=O)[C@@H](NC(=O)[C@H]1CCCCN1C)[C@@H](C)CC)c1nc(C(=O)N[C@@H](Cc2ccccc2)C[C@H](C)C(=O)O)cs1",
    "discrete.label": "class 0"
  },
  {
    "mol": "CCO[C@H](C[C@H](C(C)C)N(C)C(=O)[C@@H](NC(=O)[C@H]1CCCCN1C)[C@@H](C)CC)c1nc(C(=O)N[C@@H](Cc2ccccc2)C[C@H](C)C(=O)O)cs1",
    "discrete.label": "class 1"
  },
  {
    "mol": "CC[C@H](C)[C@H](NC(=O)[C@H]1CCCCN1C)C(=O)N(C)[C@H](C[C@@H](OC(=O)CC(C)C)c1nc(C(=O)N[C@@H](Cc2ccccc2)C[C@H](C)C(=O)O)cs1)C(C)C",
    "discrete.label": "class 1"
  }
]

* * *

- assay.system: Tubulin (Homo sapiens) (UniProt P68371+Q9H4B7+P0DPH7+P68366+Q13509+Q71U36+P04350+Q3ZCM7+P07437+P68363+Q9BQE3+Q6PEY2+Q13885+Q9BVA1+Q9BUF5)
- test.method.notes: Binding affinity to tubulin (unknown origin) by fluorescence polarization displacement assay
- Format: protein-complex assay

[
  {
    "mol": "C=C(C)CO[C@H](C[C@H](C(C)C)N(C)C(=O)[C@@H](NC(=O)[C@H]1CCCCN1C)[C@@H](C)CC)c1nc(C(=O)N[C@@H](Cc2ccccc2)C[C@H](C)C(=O)O)cs1",
    "relative binding affinity (RBA)": 0.43
  },
  {
    "mol": "CCC(=O)O[C@H](C[C@H](C(C)C)N(C)C(=O)[C@@H](NC(=O)[C@H]1CCCCN1C)[C@@H](C)CC)c1nc(C(=O)N[C@@H](Cc2ccccc2)C[C@H](C)C(=O)O)cs1",
    "relative binding affinity (RBA)": 0.97
  },
  {
    "mol": "CCO[C@H](C[C@H](C(C)C)N(C)C(=O)[C@@H](NC(=O)[C@H]1CCCCN1C)C(CC)CC)c1nc(C(=O)N[C@@H](Cc2ccccc2)C[C@H](C)C(=O)O)cs1",
    "relative binding affinity (RBA)": 0.2
  }
]
